Exercise: for every item that follows, state its recorded growth.
- System: NCI-H23 lung
- PROCEDURE TEXT: NCI-60 one-dose screen, 48 h (100 = growth as untreated, 0 = no growth, -100 = all killed)
- STUDY CONDITIONS: 10 µM unless noted
Compounds without any hit were thinned out: in the full panel of roughly 83,000, 20% have a hit.
Give the value, in units of %, as a plain number.

Param readout = growth; param system = NCI-H23 lung; param query = CCN(CC)CC[n+]1cc2cc(OC)c(OC)cc2c2ccc3cc4c(cc3c21)OCO4 ; response: value
3.47

Same again, this time with O=C(CCN1CCCC1)Nc1ccc2c(Nc3ccc(F)cc3)c3ccccc3nc2c1
-12.8

Same again, this time with O=C1C=CC(=O)N1c1cccc(Cl)c1
103

Same again, this time with Cc1ccc(C(=O)/C(=C\c2ccc([N+](=O)[O-])cc2)S(=O)Cc2ccc(Cl)cc2)cc1 (configuration not stated)
41

Same again, this time with O=c1ccc(-c2nc(N3CCOCC3)c3ccccc3n2)c[nH]1
93.9

Same again, this time with CCOC(=O)C1=C(CCl)NC(=O)NC1c1ccc2c(c1)OCO2 (configuration not stated)
48.3

Same again, this time with O=C(Nc1ccc(-c2ccc3c(c2)NC(=O)/C3=C\c2ccc[nH]2)cc1)NC1CC1
55.1

Same again, this time with O=C1/C=C/[C@@H](O)[C@@H]2C[C@@H](O)C[C@H]2/C=C/CCC[C@H](CCc2ccc3ncccc3c2)O1
-32.5

Same again, this time with CCCCCN1C=C/C(=C\C(=O)N2CCCc3ccccc32)c2ccccc21
57.5

Same again, this time with Cc1ccc(-c2nc3ccccn3c2/C=C2/C(=O)Nc3cc(Cl)ccc32)cc1
72.4

Same again, this time with N#C/C(=C\c1ccc([N+](=O)[O-])s1)c1nc2cc(Br)ccc2s1
-27.8

Same again, this time with CNC(=O)c1cc(Cn2nc(C)c(NC(=O)Nc3ccc(Cl)c(C(F)(F)F)c3)c2C)ccn1
97.8

---

- Test system: SF-539 CNS
- PROCEDURE TEXT: NCI-60 one-dose screen, 48 h (100 = growth as untreated, 0 = no growth, -100 = all killed)
- STUDY CONDITIONS: 10 µM unless noted
This is part of a sample that, as a whole, favours compounds with a hit. Of some 83,000 tested, about 20% had one in any assay.
// 0 strictly below 50% in growth; 1 otherwise

Record Cc1ccc(S(=O)(=O)Nn2c3c(cc(-c4nc5ccccc5s4)c2=O)CCCCCC3)cc1 ; criterion: growth no lower than 50%. Met?
1

Same again, this time with COc1cc(C2=NN(C(C)=O)C(c3cc(OC)c(OC)c(OC)c3)C2)ccc1O (stereo not drawn)
0

Same again, this time with COc1ccc(-c2nc3sccn3c2/C=C/C(=O)c2ccc3c(c2)OCO3)cc1
1

Same again, this time with O=C(Cc1ccc(/C=C/C(=O)c2ncc[nH]2)cc1)Nc1ccc(Cl)cc1
0

Same again, this time with NNC(=O)c1ccc(-n2nc(-c3ccccc3)c3ccccc32)cc1
1

Same again, this time with N#C/C(=C\c1cccc(C#N)c1)c1ccccc1
1

Same again, this time with Cc1cccc(NC(=O)Nc2ccc(-n3cnc4cc(-c5ccc(O)cc5)ccc43)cc2)c1
0

Same again, this time with CCCCCN1C=C/C(=C\C(=O)n2ccc3ccccc32)c2ccccc21
1

Same again, this time with CN1CCN(C(=O)[C@]23CCC(C)(C)C[C@H]2C2=CC[C@@H]4[C@@]5(C)C/C(=C/c6ccncc6)C(=O)C(C)(C)[C@@H]5CC[C@@]4(C)[C@]2(C)CC3)CC1
1

Same again, this time with COc1ccc(C(=O)c2nc3ccccc3n2CC(=O)c2ccc(Cl)cc2)cc1
0

Same again, this time with CC(C)N1C(=O)/C(=C2\SC(=S)N(C(C)C)C2=O)SC1=S
1

Same again, this time with COc1ccc(C(=O)C2C(C#N)C(C#N)C3c4ccccc4C=CN23)cc1 (stereo not drawn)
1

Same again, this time with NS(=O)(=O)c1ccc(Cn2c(SCC(=O)N/N=C/c3ccccc3O)nc3ccccc3c2=O)cc1
1

Same again, this time with O=C(NCCc1ccccc1)Nc1ccc2cc3ccc(NC(=O)NCCc4ccccc4)cc3nc2c1
0

Same again, this time with COc1cc(/C=C\c2cc(/C=C\c3ccc(O)c(OC)c3)n(C(=O)COc3ccccc3)n2)ccc1O
0

Same again, this time with CC1=CCC(OC(=O)C(C)(O)CCC(O)(C(=O)OC2(C)C=CC(O)(C(C)C)CC2)C(C)C)(C(C)C)CC1 (stereo not drawn)
1

Same again, this time with CCCCCCNC(=O)Oc1ccc(/C(=C(\C)c2ccccc2)c2ccc(OCCN3CCCCC3)cc2)cc1
0

Same again, this time with Cc1cc2cc3ccc(N(C)C)cc3nc2cc1N
0

Same again, this time with NC1=NN=C(N)C1=Cc1cc2ccccc2n2nnnc12
1

Same again, this time with N#C/C(=C\c1c(-c2ccccc2)[nH]c2ccccc12)C(=O)c1ccc(Cl)cc1
0

Same again, this time with C=C1C(=O)O[C@H]2[C@H]1CC/C(CNC(=O)/C=C/c1ccccc1)=C\CC[C@@]1(C)O[C@@H]21
0

Same again, this time with O=C1C=CC(=O)N1c1cccc(Cl)c1
1
